src = patent US11554171B2

System: c-myc in 22RV-1 cells
runDescription: Human c-myc ELISA assay
Format: cell-based
conditionNotes: Homo sapiens, 22Rv1, 18 h, read-out: Degradation of BRD4: Maximum inhibition (%) c-Myc ELISA in 22RV1 cells
readout: Emax (%)
Give bare numbers, in %.

[[record]]
structureassmiles = "Cc1ncsc1-c1ccc(CNC(=O)[C@@H]2C[C@@H](O)CN2C(=O)[C@@H](NC(=O)COCCOCCOCCCOCCOCCN(C)C(=O)C[C@@H]2N=C(c3ccc(Cl)cc3)c3c(sc(C)c3C)-n3c(C)nnc32)C(C)(C)C)cc1"
readout = "Emax"
measureunit = "%"
endpointvalue = 85

[[record]]
structureassmiles = "Cc1ncsc1-c1ccc(CNC(=O)[C@@H]2C[C@@H](O)CN2C(=O)[C@@H](c2cc(OCCCCCNC(=O)C[C@@H]3N=C(c4ccc(Cl)cc4)c4c(sc(C)c4C)-n4c(C)nnc43)no2)C(C)C)cc1"
readout = "Emax"
measureunit = "%"
endpointvalue = 98.5

[[record]]
structureassmiles = "Cc1ncsc1-c1ccc([C@H](C)NC(=O)[C@@H]2C[C@@H](O)CN2C(=O)[C@@H](NC(=O)COc2ccnc(N3CCN(C(=O)C[C@@H]4N=C(c5ccc(Cl)cc5)c5c(sc(C)c5C)-n5c(C)nnc54)CC3)c2)C(C)(C)C)cc1"
readout = "Emax"
measureunit = "%"
endpointvalue = 96


Next up:
Exercise: Please look at this molecule and report its Emax: Cc1ncsc1-c1ccc(CNC(=O)[C@@H]2C[C@@H](O)CN2C(=O)[C@@H](NC(=O)COCCn2cc(-c3ccc([C@H](C)NC(=O)C[C@@H]4N=C(c5ccc(Cl)cc5)c5c(sc(C)c5C)-n5c(C)nnc54)cc3)cn2)C(C)(C)C)cc1
Key: 80

---

Test system: c-myc in 22RV-1 cells
runDescription: Human c-myc ELISA assay
Assay type: cell-based
conditionNotes: Homo sapiens, 22Rv1, 18 h, read-out: Degradation of BRD4: Maximum inhibition (%) c-Myc ELISA in 22RV1 cells
readout: Emax (%)
One number for each entry, in %.

The cases that follow already have their Emax on record.
[[record]]
structureassmiles = "Cc1ncsc1-c1ccc([C@H](C)NC(=O)[C@@H]2C[C@@H](O)CN2C(=O)[C@@H](NC(=O)CN2CCC(O[C@H]3C[C@@H](NC(=O)C[C@@H]4N=C(c5ccc(Cl)cc5)c5c(sc(C)c5C)-n5c(C)nnc54)C3)CC2)C(C)(C)C)cc1"
testedtarget = "c-myc in 22RV-1 cells"
endpointvalue = 87

[[record]]
structureassmiles = "Cc1ncsc1-c1ccc(CNC(=O)[C@@H]2C[C@@H](O)CN2C(=O)[C@@H](NC(=O)COCCCOCCCNC(=O)C[C@@H]2N=C(c3ccc(Cl)cc3)c3c(sc(C)c3C)-n3c(C)nnc32)C(C)(C)C)cc1"
testedtarget = "c-myc in 22RV-1 cells"
endpointvalue = 100

[[record]]
structureassmiles = "Cc1ncsc1-c1ccc(CNC(=O)[C@@H]2C[C@@H](O)CN2C(=O)[C@@H](NC(=O)COCCCOCCCOc2ccc([C@H](C)NC(=O)C[C@@H]3N=C(c4ccc(Cl)cc4)c4c(sc(C)c4C)-n4c(C)nnc43)cc2)C(C)(C)C)cc1"
testedtarget = "c-myc in 22RV-1 cells"
endpointvalue = 100


Let us examine a further case.
Exercise: Using c-myc in 22RV-1 cells as the test system, report measured Emax of Cc1ncsc1-c1ccc([C@H](C)NC(=O)[C@@H]2C[C@@H](O)CN2C(=O)[C@@H](C(C)C)n2cc(-c3ccnc(O[C@H]4C[C@@H](NC(=O)C[C@@H]5N=C(c6ccc(Cl)cc6)c6c(sc(C)c6C)-n6c(C)nnc65)C4)c3)cn2)cc1 .
Key: 48

---

Tested on: c-myc in 22RV-1 cells
runDescription: Human c-myc ELISA assay
Assay type: cell-based
conditionNotes: Homo sapiens, 22Rv1, 18 h, read-out: Degradation of BRD4: Maximum inhibition (%) c-Myc ELISA in 22RV1 cells
Hi there, I'd appreciate the recorded Emax for every entry that follows.
Answers are plain numbers, in %.

Would you please look over these solved cases?
[[record]]
molecule = "CNC[C@H](NC(=O)[C@@H]1C[C@@H](O)CN1C(=O)[C@@H](NC(=O)COCCCOCCNC(=O)C[C@@H]1N=C(c2ccc(Cl)cc2)c2c(sc(C)c2C)-n2c(C)nnc21)C(C)(C)C)c1ccc(-c2scnc2C)cc1 [Example 110]"
readout = "Emax"
measureunit = "%"
endpointvalue = 7.14

[[record]]
molecule = "Cc1ncsc1-c1ccc(CNC(=O)[C@@H]2C[C@@H](O)CN2C(=O)[C@@H](NC(=O)CCN2CCN(CCNC(=O)C[C@@H]3N=C(c4ccc(Cl)cc4)c4c(sc(C)c4C)-n4c(C)nnc43)CC2)C(C)(C)C)cc1 [Example 103]"
readout = "Emax"
measureunit = "%"
endpointvalue = 62.5

[[record]]
molecule = "Cc1ncsc1-c1ccc(CNC(=O)[C@@H]2C[C@@H](O)CN2C(=O)[C@@H](NC(=O)COCCCOc2ccc([C@@H](C)NC(=O)C[C@@H]3N=C(c4ccc(Cl)cc4)c4c(sc(C)c4C)-n4c(C)nnc43)cc2)C(C)(C)C)cc1 [Example 65]"
readout = "Emax"
measureunit = "%"
endpointvalue = 95.4

[[record]]
molecule = "Cc1ncsc1-c1ccc([C@H](C)NC(=O)[C@@H]2C[C@@H](O)CN2C(=O)[C@@H](NC(=O)COCCCOCCNC(=O)C[C@@H]2N=C(c3ccc(Cl)cc3)c3c(sc(C)c3C)-n3c(C)nnc32)C(C)(C)C)cc1 [Example 77]"
readout = "Emax"
measureunit = "%"
endpointvalue = 100

[[record]]
molecule = "Cc1ncsc1-c1ccc(CNC(=O)[C@@H]2C[C@@H](O)CN2C(=O)[C@@H](NC(=O)COc2ccc(S(=O)(=O)CCNC(=O)C[C@@H]3N=C(c4ccc(Cl)cc4)c4c(sc(C)c4C)-n4c(C)nnc43)cc2)C(C)(C)C)cc1 [Example 113]"
readout = "Emax"
measureunit = "%"
endpointvalue = 88.5


For the 3 molecules below, give their Emax values.
1. Cc1ncsc1-c1ccc(CNC(=O)[C@@H]2C[C@@H](O)CN2C(=O)[C@@H](NC(=O)CCN2CCN(CCCNC(=O)C[C@@H]3N=C(c4ccc(Cl)cc4)c4c(sc(C)c4C)-n4c(C)nnc43)CC2)C(C)(C)C)cc1 [Example 102]
2. Cc1sc2c(c1C)C(c1ccc(Cl)cc1)=N[C@@H](CC(=O)N[C@H]1C[C@@H](Oc3ccc4oc(C(=O)N[C@H](C(=O)N5C[C@H](O)C[C@H]5C(=O)N[C@@H](C)c5ccc(-c6nccn6C)cc5)C(C)(C)C)cc4c3)C1)c1nnc(C)n1-2 [Example 262]
3. Cc1ncsc1-c1ccc([C@H](C)NC(=O)[C@@H]2C[C@@H](O)CN2C(=O)[C@@H](C(C)C)n2cc(-c3ccnc(N4CC[C@H](NC(=O)C[C@@H]5N=C(c6ccc(Cl)cc6)c6c(sc(C)c6C)-n6c(C)nnc65)C4)c3)cn2)cc1 [Example 263]

Key:
1. 34.5
2. 55.5
3. 23.5

Record Emax per entry; entries follow.
1. Cc1ncsc1-c1ccc([C@H](C)NC(=O)[C@@H]2C[C@@H](O)CN2C(=O)[C@@H](NC(=O)CCc2cc(F)cc(O[C@H](C)CNC(=O)C[C@@H]3N=C(c4ccc(Cl)cc4)c4c(sc(C)c4C)-n4c(C)nnc43)c2)C(C)(C)C)cc1 [Example 203]
2. Cc1ncsc1-c1ccc([C@H](C)NC(=O)[C@@H]2C[C@@H](O)CN2C(=O)C(C(C)C)n2cc(-c3cc(F)cc(O[C@H]4C[C@@H](NC(=O)C[C@@H]5N=C(c6ccc(Cl)cc6)c6c(sc(C)c6C)-n6c(C)nnc65)C4)c3)cn2)cc1 (stereo partly shown) [Example 214]
3. Cc1ncsc1-c1ccc([C@H](C)NC(=O)[C@@H]2C[C@@H](O)CN2C(=O)[C@@H](NC(=O)c2ccc(OCCCCNC(=O)C[C@@H]3N=C(c4ccc(Cl)cc4)c4c(sc(C)c4C)-n4c(C)nnc43)cn2)C(C)(C)C)cc1 [Example 115]
4. Cc1ncsc1-c1ccc([C@H](C)NC(=O)[C@@H]2C[C@@H](O)CN2C(=O)[C@@H](NC(=O)c2cc3ccc(O[C@H]4C[C@@H](NC(=O)C[C@@H]5N=C(c6ccc(Cl)cc6)c6c(sc(C)c6C)-n6c(C)nnc65)C4)cc3o2)C(C)(C)C)cc1 [Example 212]
5. Cc1sc2c(c1C)C(c1ccc(Cl)cc1)=N[C@@H](CC(=O)N[C@H]1C[C@@H](Oc3cccc(-c4cnn([C@@H](C(=O)N5C[C@H](O)C[C@H]5C(=O)N[C@@H](C)c5ccc(-c6nccn6C)cc5)C(C)C)c4)c3)C1)c1nnc(C)n1-2 [Example 290]
6. Cc1ncsc1-c1ccc([C@H](C)NC(=O)[C@@H]2C[C@@H](O)CN2C(=O)[C@@H](C(C)C)n2cc(-c3cnc(O[C@H]4C[C@H](NC(=O)C[C@@H]5N=C(c6ccc(Cl)cc6)c6c(sc(C)c6C)-n6c(C)nnc65)C4)cn3)cn2)cc1 [Example 283]

Key:
1. 92
2. 97
3. 100
4. 95
5. 15.5
6. 89.5

For the 2 molecules below, give their Emax values.
1. Cc1sc2c(c1C)C(c1ccc(Cl)cc1)=N[C@@H](CC(=O)NCCOCCCOCC(=O)N[C@H](C(=O)N1C[C@H](O)C[C@H]1C(=O)NCc1ccc(Cl)cc1)C(C)(C)C)c1nnc(C)n1-2 [Example 76]
2. Cc1ncsc1-c1ccc(CNC(=O)[C@@H]2C[C@@H](O)CN2C(=O)[C@@H](NC(=O)COCCCOCCCOc2ccc3c(c2)c2c(C(N)=O)cc(-c4c(C)noc4C)cc2n3Cc2ccccc2)C(C)(C)C)cc1 [Example 133]

Key:
1. 58.6
2. 98
